TEST TARGET: ABCG2 (Homo sapiens)
Sequence (Q9UNQ0 whole entry): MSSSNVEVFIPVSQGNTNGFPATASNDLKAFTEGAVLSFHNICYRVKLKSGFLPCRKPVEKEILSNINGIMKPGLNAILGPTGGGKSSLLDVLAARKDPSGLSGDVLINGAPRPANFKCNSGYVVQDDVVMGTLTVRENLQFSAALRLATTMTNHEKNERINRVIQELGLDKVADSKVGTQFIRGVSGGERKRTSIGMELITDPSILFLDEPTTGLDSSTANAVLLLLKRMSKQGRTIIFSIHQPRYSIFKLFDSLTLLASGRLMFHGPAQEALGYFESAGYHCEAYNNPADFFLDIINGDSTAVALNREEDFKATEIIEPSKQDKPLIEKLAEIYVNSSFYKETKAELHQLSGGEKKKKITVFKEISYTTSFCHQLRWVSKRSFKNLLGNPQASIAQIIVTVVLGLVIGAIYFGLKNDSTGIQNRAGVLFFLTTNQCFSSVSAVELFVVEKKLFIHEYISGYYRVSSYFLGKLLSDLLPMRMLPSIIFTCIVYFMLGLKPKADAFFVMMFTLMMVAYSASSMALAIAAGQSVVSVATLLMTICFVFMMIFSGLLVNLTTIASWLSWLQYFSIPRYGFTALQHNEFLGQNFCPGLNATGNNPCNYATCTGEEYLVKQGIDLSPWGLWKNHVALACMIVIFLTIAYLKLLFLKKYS
ASSAY PROTOCOL: Competitive substrate activity at ABCG2 (unknown origin) expressed in High Five insect cell vesicle membrane assessed as stimulation of ATPase activity at 0.21 uM by PREDEASY ATPase assay relative to control
PARTICULARS: High Five insect cell vesicle membranes expressing ABCG2
OUTCOME MEASURE: Emax at 0.21 µM (%)
The answer is to be given in %; state only the numeric part.

According to the records, this molecule COc1ccc(C(=O)c2ccc3[nH]cc(C(=O)c4ccc(OC)cc4)c3c2OC)cc1 displays Emax at 0.21 µM of 50

* * *

ASSAY PROTOCOL: Metabolic stability in human liver microsomes assessed as compound remaining at 100 uM incubated for 1 hr by HPLC analysis
Type: ADME, Microsome
PARTICULARS: read-out: Stability
OUTCOME MEASURE: remaining at 1 h, 100 µM (%)
The answer is to be given in %; state only the numeric part.

According to the records, this compound COc1ccc(C(=O)c2ccc3[nH]cc(C(=O)c4ccc(OC)cc4)c3c2OC)cc1 displays remaining at 1 h, 100 µM of 56

According to the records, this compound COc1ccc2c3c([nH]c2c1)[C@H](CC(C)C)N1C(=O)[C@H](CCC(=O)OC(C)(C)C)NC(=O)[C@@H]1C3 displays remaining at 1 h, 100 µM of 23

According to the records, this compound COc1ccc(C(=O)c2c[nH]c3ccc(OC)cc23)cc1 displays remaining at 1 h, 100 µM of 78
